Assay: Aqueous solubility
Assay type: physicochemical
Conditions: universal aqueous buffer, pH 7.4, aqueous solubility, DMSO concentration of 2%
endpoint-name: solubility at 90 min

compound	solubility at 90 min
NCC(NC(=O)c1ccc(-c2ccc(C(F)(F)F)c(F)c2)[nH]1)c1nc(CO)cs1 (centres unmarked)	100 to 500 µM

// moving on: another record for solubility at 90 min
Q: Given the compound NCC(NC(=O)c1ccc(-c2cc(F)c(Cl)c(F)c2)[nH]1)c1nc(CO)cs1 (centres unmarked) , what is its reported solubility at 90 min?
Result: 100 to 500 µM

###

Experiment: Cytotoxicity in U87-CD4-CXCR4 cells
Type: cell-based
Details: human
endpoint-name: CC50 at 3 days
Please answer using a numeric value trailed by its unit.

compound	CC50 at 3 days
NCC(NC(=O)c1ccc(-c2cc(F)c(Cl)c(F)c2)[nH]1)c1nc(CO)cs1 (centres unmarked)	39.3 µM

Q: Given the compound NC[C@@H](NC(=O)c1ccc(-c2ccc(C(F)(F)F)cc2)[nH]1)c1ncc(CO)s1 , what is its reported CC50 at 3 days?
Result: 46.4 µM

###

Assay: Cytotoxicity in TZM-bl cells
Assay type: cell-based
Conditions: human
endpoint-name: CC50 at 72 h (µM)
# number only, unit µM dropped from output

Q: Given the compound NC[C@@H](NC(=O)c1ccc(-c2ccc(C(F)(F)F)cc2)[nH]1)c1ncc(CO)s1 , what is its reported CC50 at 72 h?
Result: 42.4

Every entry's value here was drawn from paper PMC5993640.
